Target: human p38 kinase alpha (Homo sapiens, UniProt Q16539)
Construct: The coding region of the human p38a cDNA was obtained by PCR-amplification from RNA isolated from the human monocyte cell line THP.1; GST (N); made in house; host or cells: E. coli DH10B
Test: p38 kinase in vitro assay, phosphorylation of biotinylated PHAS-I with gamma 32P-ATP
Type: biochemical
Details: read-out: P38 alpha kinase IC50
Category scheme (IC50): bucket A = under 200 nM, bucket B = from 200 nM up to 400 nM, bucket C = 400 nM and over

{"MOLECULE": "C[C@@H](NC(=O)c1c(F)cccc1F)c1[nH]nc(-c2ccc(F)cc2)c1-c1ccncc1", "DISCRETE LABEL": "bucket A"}
{"MOLECULE": "C[C@@H](NC(=O)c1ccc(F)c(F)c1F)c1[nH]nc(-c2ccc(F)cc2)c1-c1ccncc1", "DISCRETE LABEL": "bucket A"}
{"MOLECULE": "O=C(NCc1[nH]nc(-c2ccc(F)cc2)c1-c1ccncc1)c1ccc(C(F)(F)F)cc1", "DISCRETE LABEL": "bucket C"}

Problem: Which bin, given its IC50, does `Cc1cc(C)c(S(=O)(=O)N[C@H](C)c2[nH]nc(-c3ccc(F)cc3)c2-c2ccncc2)c(C)c1` occupy?
Solution: bucket C

Problem: Which bin, given its IC50, does `CNC(=O)N[C@H](C)c1[nH]nc(-c2ccc(F)cc2)c1-c1ccncc1` occupy?
Solution: bucket C

Problem: Which bin, given its IC50, does `O=C(NCc1[nH]nc(-c2ccc(F)cc2)c1-c1ccncc1)c1cc(F)cc(C(F)(F)F)c1` occupy?
Solution: bucket C

Problem: Which bin, given its IC50, does `CCNC(=O)NCc1[nH]nc(-c2ccc(F)cc2)c1-c1ccncc1` occupy?
Solution: bucket A

Problem: Which bin, given its IC50, does `COc1ccc(CC(=O)N[C@H](C)c2[nH]nc(-c3ccc(F)cc3)c2-c2ccncc2)cc1` occupy?
Solution: bucket B

====

Parameter pIC50: see the listing below.
Biological target: human GST-p38 kinase alpha (Homo sapiens)
Construct: The coding region of the human p38a cDNA was obtained by PCR-amplification from RNA isolated from the human monocyte cell line THP.1; made in house; host or cells: E. coli DH10B
Sequence (Q16539 whole entry): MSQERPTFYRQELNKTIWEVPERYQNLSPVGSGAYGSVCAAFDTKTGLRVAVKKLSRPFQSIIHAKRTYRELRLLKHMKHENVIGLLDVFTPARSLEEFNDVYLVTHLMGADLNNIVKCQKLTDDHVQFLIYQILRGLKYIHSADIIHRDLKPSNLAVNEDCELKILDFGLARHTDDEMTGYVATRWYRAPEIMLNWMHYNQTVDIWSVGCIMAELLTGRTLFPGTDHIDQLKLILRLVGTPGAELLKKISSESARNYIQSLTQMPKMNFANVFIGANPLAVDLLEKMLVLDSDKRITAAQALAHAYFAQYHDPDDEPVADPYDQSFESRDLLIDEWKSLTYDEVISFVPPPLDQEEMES
Test: p38 kinase in vitro assay, second format, phosphorylation of EGFRP with 33P-ATP
Format: biochemical
Conditions: Table 10, 10% DMSO; @ 1.0 hour; read-out: p38α Kinase Assay IC50
Where a name gives a salt, the structure may show the parent alone.
Entry type: numeric. Quantity: pIC50, the -log10 of concentration in molar units.

{"MOLECULE": "Clc1ccc(-c2n[nH]c(SC3CCNCC3)c2-c2ccncc2)cc1 [A-459 (salt)]", "TARGET SYSTEM": "human GST-p38 kinase alpha (Homo sapiens)", "EXPERIMENTAL RESULT": 7.00}

Problem: Look at this molecule and give its reported pIC50. Cc1cccc(-c2n[nH]c(N3CCN(C)CC3)c2-c2ccncc2)c1 [A-389, Step 4]
Solution: 6.80

Problem: Look at this molecule and give its reported pIC50. Cc1ccc(-c2[nH]nc(N3CCN(C)CC3)c2-c2ccncc2)cc1 [Example A-416]
Solution: 7.39

Problem: Look at this molecule and give its reported pIC50. C=CCSc1[nH]nc(-c2ccc(Cl)cc2)c1-c1ccncc1 [Example A-479]
Solution: 7.14

Problem: Look at this molecule and give its reported pIC50. CC(C)(C)OC(=O)N1CCC(Oc2[nH]nc(-c3ccc(Cl)cc3)c2-c2ccncc2)CC1 [Example A-441]
Solution: 5.92

Problem: Look at this molecule and give its reported pIC50. O=C(C(=C(SCC1OCCO1)SCC1OCCO1)c1ccncc1)c1ccc(F)cc1 [Example A-449]
Solution: 4.23

Problem: Look at this molecule and give its reported pIC50. COc1[nH]nc(-c2ccc(Cl)cc2)c1-c1ccncc1 [Example A-446]
Solution: 6.05

Problem: Look at this molecule and give its reported pIC50. Fc1ccc(-c2n[nH]c(N3CCSCC3)c2-c2ccncc2)cc1 [Example A-438]
Solution: 6.25

Problem: Look at this molecule and give its reported pIC50. COCCSc1[nH]nc(-c2ccc(Cl)cc2)c1-c1ccncc1 [Example A-469]
Solution: 7.02

====

Parameter inhibition at 1 µM: see the listing below.
Molecular target: human p38 kinase alpha (Homo sapiens, UniProt Q16539)
Construct: The coding region of the human p38a cDNA was obtained by PCR-amplification from RNA isolated from the human monocyte cell line THP.1; GST (N); made in house; host or cells: E. coli DH10B
Test: p38 kinase in vitro assay, phosphorylation of biotinylated PHAS-I with gamma 32P-ATP
Assay type: biochemical
Conditions: @ 1.0 uM; read-out: P38 alpha kinase % inhib @ conc.
State the result as a value with its unit after it.

Worked examples follow.
{"COMPOUND": "Cc1cccc(C(=O)NCc2[nH]nc(-c3ccc(F)cc3)c2-c2ccncc2)c1 [Example B-0067]", "MEASURED ATTRIBUTE": "inhibition at 1 µM", "EXPERIMENTAL RESULT": "91%"}
{"COMPOUND": "Cc1onc(-c2ccccc2Cl)c1C(=O)NCc1[nH]nc(-c2ccc(F)cc2)c1-c1ccncc1 [Example B-0056]", "MEASURED ATTRIBUTE": "inhibition at 1 µM", "EXPERIMENTAL RESULT": "96%"}
{"COMPOUND": "CCS(=O)(=O)NCc1[nH]nc(-c2ccc(F)cc2)c1-c1ccncc1 [Example B-0105]", "MEASURED ATTRIBUTE": "inhibition at 1 µM", "EXPERIMENTAL RESULT": "78%"}
{"COMPOUND": "O=C(NCc1[nH]nc(-c2ccc(F)cc2)c1-c1ccncc1)C1CCCC1 [Example B-0079]", "MEASURED ATTRIBUTE": "inhibition at 1 µM", "EXPERIMENTAL RESULT": "93%"}
{"COMPOUND": "CCCCOc1ccc(S(=O)(=O)NCc2[nH]nc(-c3ccc(F)cc3)c2-c2ccncc2)cc1 [Example B-0129]", "MEASURED ATTRIBUTE": "inhibition at 1 µM", "EXPERIMENTAL RESULT": "51%"}
{"COMPOUND": "CCc1ccc(S(=O)(=O)NCc2[nH]nc(-c3ccc(F)cc3)c2-c2ccncc2)cc1 [Example B-0132]", "MEASURED ATTRIBUTE": "inhibition at 1 µM", "EXPERIMENTAL RESULT": "76%"}

Problem: Look at this compound and give its reported inhibition at 1 µM. CCCCS(=O)(=O)NCc1[nH]nc(-c2ccc(F)cc2)c1-c1ccncc1 [Example B-0100]
Solution: 75%

====

Molecular target: human p38 kinase alpha (Homo sapiens, UniProt Q16539)
Construct: The coding region of the human p38a cDNA was obtained by PCR-amplification from RNA isolated from the human monocyte cell line THP.1; GST (N); made in house; host or cells: E. coli DH10B
Test: p38 kinase in vitro assay, phosphorylation of biotinylated PHAS-I with gamma 32P-ATP
Format: biochemical
Details: read-out: P38 alpha kinase IC50
pIC50: −log10 of the molar value.
Category scheme (pIC50): bottom bin = under 6, middle bin = from 6 up to 7, top bin = 7 and over

{"MOLECULE": "O=C(NCc1[nH]nc(-c2ccc(F)cc2)c1-c1ccncc1)[C@H]1CCCN1C(=O)OCC1c2ccccc2-c2ccccc21 [Example B-0197]", "DISCRETE LABEL": "bottom bin"}

Problem: Which bin, given its pIC50, does CC(=O)Nc1ccc(S(=O)(=O)N[C@H](C)c2[nH]nc(-c3ccc(F)cc3)c2-c2ccncc2)cc1 [Example B-0431] occupy?
Solution: middle bin

Problem: Which bin, given its pIC50, does CN(C)CC(=O)N1CCC(c2[nH]nc(-c3ccc(Cl)cc3)c2-c2ccncc2)CC1 [Example C-122] occupy?
Solution: top bin

Problem: Which bin, given its pIC50, does CCCS(=O)(=O)NC(Cc1ccccc1)c1[nH]nc(-c2ccc(F)cc2)c1-c1ccncc1 (stereo not drawn) [Example B-0715] occupy?
Solution: bottom bin

Problem: Which bin, given its pIC50, does Cc1cc(C)c(C(=O)N[C@H](C)c2[nH]nc(-c3ccc(F)cc3)c2-c2ccncc2)c(C)c1 [Example B-0505] occupy?
Solution: middle bin

Problem: Which bin, given its pIC50, does CC(NS(=O)(=O)c1ccccc1C#N)c1[nH]nc(-c2ccc(F)cc2)c1-c1ccncc1 (stereo not drawn) [Example B-0627] occupy?
Solution: middle bin

Problem: Which bin, given its pIC50, does CC(=O)N1CCCC(c2[nH]nc(-c3ccc(F)cc3)c2-c2ccncc2)C1 (stereo not drawn) [Example C-138] occupy?
Solution: middle bin

Problem: Which bin, given its pIC50, does O=C(NCc1[nH]nc(-c2ccc(F)cc2)c1-c1ccncc1)c1cc(F)c(F)cc1F [Example B-0296] occupy?
Solution: bottom bin

Problem: Which bin, given its pIC50, does N=C(N)N1CCC(c2[nH]nc(-c3ccc(F)cc3)c2-c2ccncc2)CC1 [Example C-108] occupy?
Solution: top bin

Problem: Which bin, given its pIC50, does O=S(=O)(NCc1[nH]nc(-c2ccc(F)cc2)c1-c1ccncc1)c1ccc(S(=O)(=O)c2ccccc2)s1 [Example B-0263] occupy?
Solution: middle bin

Problem: Which bin, given its pIC50, does CC1(C)C2CCC1(CS(=O)(=O)NCc1[nH]nc(-c3ccc(F)cc3)c1-c1ccncc1)C(=O)C2 (stereo not drawn) [Example B-0227] occupy?
Solution: top bin

Problem: Which bin, given its pIC50, does O=S(=O)(Cc1ccccc1)NCc1[nH]nc(-c2ccc(F)cc2)c1-c1ccncc1 [Example B-0120] occupy?
Solution: top bin

Problem: Which bin, given its pIC50, does C[C@@H](NS(=O)(=O)c1ccc(-c2ccon2)s1)c1[nH]nc(-c2ccc(F)cc2)c1-c1ccncc1 [Example B-0485] occupy?
Solution: top bin

Problem: Which bin, given its pIC50, does C[C@@H](NC(=O)c1cnc2ccccc2n1)c1[nH]nc(-c2ccc(F)cc2)c1-c1ccncc1 [Example B-0384] occupy?
Solution: bottom bin
